# experiment notes: Ratio of Ki for human neutrophil elastase to Ki for HCV NS3 protease
measured quantity: Ratio Ki
Answers are plain numbers.

# annotated cases, reported Ratio Ki shown
{"compound": "CC(C)(C)NC(=O)N[C@H](C(=O)N1CC2C([C@H]1C(=O)NC(CC1CCC1)C(=O)C(N)=O)C2(C)C)C(C)(C)C (single isomer, unassigned)", "Ratio Ki": 2200}
{"compound": "CN(C)C(=O)[C@@H](NC(=O)CNC(=O)C(=O)[C@@H]1CCCCCCCCCC[C@H](NC(=O)NC(C)(C)C)C(=O)N2C[C@@H]3[C@H]([C@H]2C(=O)N1)C3(C)C)c1ccccc1", "Ratio Ki": 980}
{"compound": "CN(C)C(=O)[C@@H](NC(=O)CNC(=O)C(=O)[C@@H]1CCCC/C=C/CCCC[C@H](NC(=O)OC(C)(C)C)C(=O)N2CC3C([C@H]2C(=O)N1)C3(C)C)c1ccccc1 (single isomer, unassigned)", "Ratio Ki": 1400}

Problem: Indicate the recorded Ratio Ki value for this compound: CN(C)C(=O)[C@@H](NC(=O)CNC(=O)C(=O)[C@@H]1CCCCCCCCCC[C@H](NC(=O)OC(C)(C)C)C(=O)N2CC3C([C@H]2C(=O)N1)C3(C)C)c1ccccc1 (single isomer, unassigned)
Result: 780
